Assay: BSK_4H_Eotaxin3: BioMAP Diversity Plus: 4H Assay for Eotaxin 3 Biomarker Activity (AID 2283000);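 further: CCL26 protein level quantified by ELISA in parallel with SRB cytotoxicity check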
Details: primary human endothelial cells (HUVEC); actives raise or lower the signal
Activity calls are given as the source filed them. How the source made its calls: active means hit-call score of the fitted dose curve at least 0.9, where 1 is the maximum; inactive means score below 0.9.
Use one of these outcomes when replying: active, inactive

compound	label
O=C1OC(c2ccc(O)cc2)(c2ccc(O)cc2)c2ccccc21	inactive

## Task Identify the outcome logged in this assay for the compound shown: "O=C1NC(=O)C(c2ccccc2)(c2ccccc2)N1"
## Result inactive

###

Read-out: Glutathione S-Transferase (GSTA2), GSTA2 (gene 2939)
Assay: LTEA_HepaRG_GSTA2: Life Technologies and Expression Analysis (LTEA) Assay for Glutathione S-Transferase (GSTA2) using HepaRG (AID 2283497)
Settings: mRNA level, 48 h; actives raise or lower the signal
Active and inactive are the calls of the source. Rule for the calls: active = hit-call score of the fitted dose curve at least 0.9, where 1 is the maximum; inactive = score below 0.9.
Can you answer with just one of these options? active, inactive

Worked set:
query.smiles	label
CC(C)c1cccc(C(C)C)c1NC(=O)NS(=O)(=O)c1cc(C(C)(C)O)co1	inactive
CCCCCCCCCCCCCCOS(=O)(=O)O	inactive
NC=O	inactive

## Task Hi team, can someone confirm the assay call for "CN(C)CCCN1c2ccccc2Sc2ccc(Cl)cc21" ?
## Result active

## Task Please do the same for "O=C(NS(=O)(=O)/C=C/c1cccs1)c1ccc(F)cc1Br" as well.
## Result inactive

## Task Please answer likewise for "CC(=O)O[C@]1(C(C)=O)CC[C@H]2[C@@H]3C=C(Cl)C4=CC(=O)[C@@H]5C[C@@H]5[C@]4(C)[C@H]3CC[C@@]21C"
## Result active

## Task Continue with "c1ccc2occc2c1"
## Result inactive
